- runConditions: in toluene, 293.15 K
recordedEndpoint: solubility (mole fraction)
In your answer, state the number alone without any accompanying words.

Record O=C(O)c1cccnc1Nc1cccc(C(F)(F)F)c1 . Reported solubility (mole fraction): 0.00154

----------
- runConditions: in ethanol, 323.15 K
recordedEndpoint: solubility (mole fraction)
In your answer, state the number alone without any accompanying words.

Record O=C(O)c1cccnc1Nc1cccc(C(F)(F)F)c1 . Reported solubility (mole fraction): 0.0197

----------
- runConditions: in ethanol, 328.15 K
recordedEndpoint: solubility (mole fraction)
In your answer, state the number alone without any accompanying words.

Record O=C(O)c1cccnc1Nc1cccc(C(F)(F)F)c1 . Reported solubility (mole fraction): 0.0211
